Would you mind telling me the reported IC50 of each entry?
- Tested on: DU145
- procedure-summary: MTT assay, DU145
- Assay type: cell-based
- protocol-conditions: Homo sapiens, DU-145, 72 h, read-out: IC50 ± SD Prostate DU145

Consider the worked cases shown below.
CN(C)c1ccc(/C=C/C(=O)c2ccc(Cl)cc2Cl)cc1; 96.9 µM
COc1ccc(C(=O)/C=C/c2ccc(N(C)C)cc2)cc1OC; 22.5 µM
CN(C)c1ccc(C2=NN(c3ccccc3)C(c3ccccn3)C2)cc1 (stereo not drawn); > 100 µM
COc1ccc(C2CC(c3ccc(N(C)C)cc3)=NN2c2ccccc2)cc1 (stereo not drawn); > 100 µM
CCN(CC)c1ccc(/C=C/C(=O)c2ccccn2)cc1; > 100 µM

Noted for CN(C)c1ccc(C2=NN(c3ccccc3)C(c3ccc(Cl)cc3Cl)C2)cc1 (stereo not drawn) : its IC50 reads > 100 µM
